Origin of the recorded values: the Immune Epitope Database (IEDB)

molecular target: HLA-B*58:01; experiment: IEDB peptide-MHC binding, purified MHC/competitive/fluorescence; filed as Kd, often an IC50 or EC50 that approximates it; bounds were set here for any values at or beyond the usual limits of such assays; settings: source organism: Bacillus anthracis str. A0488
pKd: −log10 of the molar value.
recorded-metric: pKd

In [3]: df
Out[3]:
       chain  op  measurement
0  WDAYIPHYV   ≤         5.30
1  KSLIISFAF   =         6.41

====

biological target: HLA-A*24:03; assay: IEDB peptide-MHC binding, purified MHC/direct/fluorescence; filed as Kd, often an IC50 or EC50 that approximates it; bounds were set here for any values at or beyond the usual limits of such assays; details: source organism: Vibrio cholerae
recorded-metric: Kd (µM)

>>> print(df.to_string())
       chain  recorded_metric  measurement
0  SVMPAWQEK               Kd         10.3
